This collection of values is drawn from paper PMC8220737.

- assayed-system: UniProt:P00690
- Sequence (P00690 16-511): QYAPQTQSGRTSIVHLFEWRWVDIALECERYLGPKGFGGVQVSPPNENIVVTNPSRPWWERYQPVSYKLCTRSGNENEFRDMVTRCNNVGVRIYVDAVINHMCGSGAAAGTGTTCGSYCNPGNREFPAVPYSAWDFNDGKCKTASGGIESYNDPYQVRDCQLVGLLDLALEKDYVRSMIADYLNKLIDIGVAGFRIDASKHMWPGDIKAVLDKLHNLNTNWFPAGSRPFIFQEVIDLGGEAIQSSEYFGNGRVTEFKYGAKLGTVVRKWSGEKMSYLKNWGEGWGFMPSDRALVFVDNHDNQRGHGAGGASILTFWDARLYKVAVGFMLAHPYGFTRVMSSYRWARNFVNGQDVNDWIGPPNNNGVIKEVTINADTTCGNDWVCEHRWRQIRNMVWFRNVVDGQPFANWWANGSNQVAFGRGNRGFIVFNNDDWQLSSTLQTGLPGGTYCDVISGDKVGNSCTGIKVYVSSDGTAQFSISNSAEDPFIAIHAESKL
pIC50: −log10 of the molar value.
property: pIC50

{"columns": ["molecule", "observed-measurement"],
 "data": [
  ["COc1cc(NC(=O)c2ccc3c(c2)OCO3)cc(OC)c1 [6b]", 4.85]
]}

###

Recorded IC50 (µg/ml) Lipase, one value per entry.
- assayed-system: porcine pancreatic lipase (Sus scrofa, UniProt P00591)
- Sequence (P00591 whole entry): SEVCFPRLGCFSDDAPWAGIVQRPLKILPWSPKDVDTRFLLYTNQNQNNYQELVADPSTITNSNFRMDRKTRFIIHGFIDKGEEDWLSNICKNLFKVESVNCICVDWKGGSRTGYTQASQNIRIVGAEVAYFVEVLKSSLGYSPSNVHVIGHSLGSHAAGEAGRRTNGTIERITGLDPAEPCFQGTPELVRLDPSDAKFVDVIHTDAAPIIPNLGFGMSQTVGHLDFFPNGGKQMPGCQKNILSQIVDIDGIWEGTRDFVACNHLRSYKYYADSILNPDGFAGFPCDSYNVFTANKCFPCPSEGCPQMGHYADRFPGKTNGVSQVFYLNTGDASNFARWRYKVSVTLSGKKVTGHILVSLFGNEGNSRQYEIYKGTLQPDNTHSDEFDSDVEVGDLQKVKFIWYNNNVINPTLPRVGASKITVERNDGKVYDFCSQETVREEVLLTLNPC
- test-protocol: Anti-lipase activity (PNPB hydrolysis)
- Type: biochemical
- stated-conditions: five dilutions 40, 100, 200, 300, 400 µg/ml; orlistat positive control

{"columns": ["compound", "IC50 (µg/ml) Lipase"],
 "data": [
  ["COC(=O)Cc1cc2c(cc1C(=O)c1ccccc1I)OCO2 [3c]", "> 400 µg/mL"],
  ["O=C(O)Cc1cc2c(cc1C(=O)c1cccc(Cl)c1)OCO2 [4b]", "> 400 µg/mL"],
  ["O=C(O)Cc1cc2c(cc1C(=O)c1ccccc1Cl)OCO2 [4a]", "> 400 µg/mL"]
]}
